We begin with a simple list: items and their reported Ki.
molecular target: Cyclin-dependent kinase 4/cyclin D1 (Homo sapiens, UniProt P11802); assay: Inhibition of CDK4/cyclin D1 (unknown origin)
Sequence (P11802 whole entry): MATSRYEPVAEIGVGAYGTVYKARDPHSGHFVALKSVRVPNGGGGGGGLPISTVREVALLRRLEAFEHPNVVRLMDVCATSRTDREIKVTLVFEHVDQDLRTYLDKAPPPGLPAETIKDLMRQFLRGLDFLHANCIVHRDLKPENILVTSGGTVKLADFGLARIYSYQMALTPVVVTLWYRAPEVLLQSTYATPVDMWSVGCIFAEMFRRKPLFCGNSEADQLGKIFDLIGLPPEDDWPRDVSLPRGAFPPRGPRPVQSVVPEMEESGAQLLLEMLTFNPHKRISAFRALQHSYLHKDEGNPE
Sequence (P24385 whole entry, further chain): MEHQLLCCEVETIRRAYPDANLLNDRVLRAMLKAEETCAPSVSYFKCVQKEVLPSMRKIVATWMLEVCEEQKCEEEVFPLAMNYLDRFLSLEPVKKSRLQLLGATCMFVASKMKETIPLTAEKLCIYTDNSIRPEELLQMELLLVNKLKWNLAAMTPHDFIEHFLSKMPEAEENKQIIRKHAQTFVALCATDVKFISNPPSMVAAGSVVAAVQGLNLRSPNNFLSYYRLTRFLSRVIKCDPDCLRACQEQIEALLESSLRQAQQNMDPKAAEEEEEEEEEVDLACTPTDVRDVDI

Sample answers from the record:
Fc1ccc(-c2ccnc3c2c(-c2ccccc2)nn3-c2ccccc2)cc1    3.78 µM
COc1ccc(C(=O)C=CNc2cc(-c3ccccc3)nn2-c2ccccc2)cc1    9.12 µM

Asked: Quick one: Ki for COc1ccc(-c2nc3c(c(-c4ccccc4)nn3-c3ccccc3)c(-c3ccc(N4CCN(C)CC4)cc3)c2C#N)cc1 ?
Given back: 56.9 µM

Asked: Another molecule to check: COc1ccc(-c2nc3c(c(-c4ccccc4)nn3-c3ccccc3)c(-c3ccc(N4CCOCC4)cc3)c2C#N)cc1
Given back: 11.6 µM

====

biological target: CDK2/Cyclin A2 (Homo sapiens, UniProt P24941); test: Inhibition of CDK2/Cyclin A2 (unknown origin) after 10 mins by ADP-Glo reagent based assay
Recorded pKi values for a group of compounds are listed next.
// field semantics: pKi = negative decimal log of concentration (mol/L)

// below: answered compounds
COc1ccc(C(=O)C=CNc2cc(-c3ccccc3)nn2-c2ccccc2)cc1    7.60
COc1ccc(-c2nc3c(c(-c4ccccc4)nn3-c3ccccc3)c(-c3ccc(N4CCN(C)CC4)cc3)c2C#N)cc1    7.40
Fc1ccc(-c2ccnc3c2c(-c2ccccc2)nn3-c2ccccc2)cc1    7.60

Next up:
Asked: Please report the recorded pKi for COc1ccc(-c2nc3c(c(-c4ccccc4)nn3-c3ccccc3)c(-c3ccc(N4CCOCC4)cc3)c2C#N)cc1 .
Given back: 6.88

====

biological target: CDK2/Cyclin A2 (Homo sapiens, UniProt P24941); assay: Inhibition of CDK2/Cyclin A2 (unknown origin) after 10 mins by ADP-Glo reagent based assay
quantity: IC50 (µM)
Give just the number in µM; leave the unit off.

Solved cases (2 shown):
Cc1ccc(-c2ccnc3c2c(-c2ccccc2)nn3-c2ccccc2)cc1    0.0819
COc1ccc(-c2ccnc3c2c(-c2ccccc2)nn3-c2ccccc2)cc1    0.27

Asked: Quick check: IC50 on CDK2/Cyclin A2 (Homo sapiens, UniProt P24941), item COc1ccc(-c2nc3c(c(-c4ccccc4)nn3-c3ccccc3)c(-c3ccc(N4CCOCC4)cc3)c2C#N)cc1 ?
Given back: 0.221

Asked: Query O=C(C=CNc1cc(-c2ccccc2)nn1-c1ccccc1)c1ccc(Cl)cc1 next
Given back: 0.122

Asked: Next compound: N#Cc1c(-c2ccc(Cl)cc2)nc2c(c(-c3ccccc3)nn2-c2ccccc2)c1-c1ccc(N2CCCCC2)cc1
Given back: 0.195

====

target: Cyclin-dependent kinase 1/cyclin B1 (Homo sapiens); assay: Inhibition of CDK1/cyclin B (unknown origin)
Sequence (P06493 whole entry): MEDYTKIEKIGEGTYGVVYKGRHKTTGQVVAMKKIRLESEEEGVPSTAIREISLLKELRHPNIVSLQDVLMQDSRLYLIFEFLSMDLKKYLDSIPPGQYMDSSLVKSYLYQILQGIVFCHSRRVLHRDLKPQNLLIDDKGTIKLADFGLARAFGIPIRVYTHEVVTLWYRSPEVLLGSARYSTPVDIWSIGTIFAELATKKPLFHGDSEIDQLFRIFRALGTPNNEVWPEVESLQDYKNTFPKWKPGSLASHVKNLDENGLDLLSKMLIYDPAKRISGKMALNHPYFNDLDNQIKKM
Sequence (P14635 whole entry, further chain): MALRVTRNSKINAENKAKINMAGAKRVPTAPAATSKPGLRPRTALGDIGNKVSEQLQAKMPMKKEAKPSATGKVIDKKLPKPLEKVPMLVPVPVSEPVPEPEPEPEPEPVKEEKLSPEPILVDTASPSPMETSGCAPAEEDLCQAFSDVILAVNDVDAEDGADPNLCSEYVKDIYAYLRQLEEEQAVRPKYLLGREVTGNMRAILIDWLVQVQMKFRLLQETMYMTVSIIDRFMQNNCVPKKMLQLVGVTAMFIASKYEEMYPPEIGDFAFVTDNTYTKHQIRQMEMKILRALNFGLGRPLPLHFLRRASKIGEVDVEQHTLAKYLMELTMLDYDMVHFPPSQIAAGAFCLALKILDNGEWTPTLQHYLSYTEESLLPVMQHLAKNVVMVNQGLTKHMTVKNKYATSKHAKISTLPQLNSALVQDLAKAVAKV
Form field: pIC50 (one value per entry).
Note on pIC50: it is the negative log10 of concentration, concentration in mol/L.

Example results:
COc1ccc(C(=O)C=CNc2cc(-c3ccccc3)nn2-c2ccccc2)cc1    6.02
COc1ccc(-c2nc3c(c(-c4ccccc4)nn3-c3ccccc3)c(-c3ccc(N4CCN(C)CC4)cc3)c2C#N)cc1    6.68
Fc1ccc(-c2ccnc3c2c(-c2ccccc2)nn3-c2ccccc2)cc1    5.87

Please examine the following record next.
Asked: Value wanted: pIC50 (Cyclin-dependent kinase 1/cyclin B1 (Homo sapiens)) of entry COc1ccc(-c2nc3c(c(-c4ccccc4)nn3-c3ccccc3)c(-c3ccc(N4CCOCC4)cc3)c2C#N)cc1
Given back: 6.14
